Source of measurements: patent US20160361329A1

target: Human factor D (Homo sapiens); construct: purified from human serum; assay: Human Factor D Assay; details: Human factor D 80 nM, substrate Z-L-Lys-SBzl and DTNB, pH 7.5
Sequence (P00746 26-253): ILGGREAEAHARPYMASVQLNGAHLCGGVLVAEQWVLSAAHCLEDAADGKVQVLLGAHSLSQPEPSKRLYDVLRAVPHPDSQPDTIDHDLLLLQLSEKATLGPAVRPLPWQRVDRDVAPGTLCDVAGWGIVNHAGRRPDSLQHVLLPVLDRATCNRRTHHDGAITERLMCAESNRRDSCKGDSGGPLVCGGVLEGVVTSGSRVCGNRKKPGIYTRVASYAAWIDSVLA
pIC50: −log10 of the molar value.
Reported Endpoint: pIC50

Please review the entries below; each comes with its answer.
Smiles String: [2H]C([2H])(NC(=O)[C@@H]1C[C@@H](F)CN1C(=O)Cn1nc(C(N)=O)c2ccncc21)c1cccc(Cl)c1F
pIC50: > 6.00
--
Smiles String: CC(=O)c1cn(CC(=O)N2[C@@H]3CCCC[C@@H]3C[C@H]2C(=O)NCc2cccc(Cl)c2F)c2cc(O)ccc12
pIC50: 5.00 to 6.00

# input for lookup
# pIC50 of C=C[C@@H]1C[C@]1(NC(=O)[C@@H]1C[C@@H](F)CN1C(=O)Cn1cc(C(C)=O)c2ccc(O)cc21)C(=O)NS(=O)(=O)C1CC1 = 5.00 to 6.00
